Each recorded value in this set is attributed to patent US20250032632A1.

EXPERIMENTAL SYSTEM: mouse cMET (ELISA antigen) (mouse, UniProt P16056 25-931, limits assumed)
Sequence (P16056 25-931 limits assumed): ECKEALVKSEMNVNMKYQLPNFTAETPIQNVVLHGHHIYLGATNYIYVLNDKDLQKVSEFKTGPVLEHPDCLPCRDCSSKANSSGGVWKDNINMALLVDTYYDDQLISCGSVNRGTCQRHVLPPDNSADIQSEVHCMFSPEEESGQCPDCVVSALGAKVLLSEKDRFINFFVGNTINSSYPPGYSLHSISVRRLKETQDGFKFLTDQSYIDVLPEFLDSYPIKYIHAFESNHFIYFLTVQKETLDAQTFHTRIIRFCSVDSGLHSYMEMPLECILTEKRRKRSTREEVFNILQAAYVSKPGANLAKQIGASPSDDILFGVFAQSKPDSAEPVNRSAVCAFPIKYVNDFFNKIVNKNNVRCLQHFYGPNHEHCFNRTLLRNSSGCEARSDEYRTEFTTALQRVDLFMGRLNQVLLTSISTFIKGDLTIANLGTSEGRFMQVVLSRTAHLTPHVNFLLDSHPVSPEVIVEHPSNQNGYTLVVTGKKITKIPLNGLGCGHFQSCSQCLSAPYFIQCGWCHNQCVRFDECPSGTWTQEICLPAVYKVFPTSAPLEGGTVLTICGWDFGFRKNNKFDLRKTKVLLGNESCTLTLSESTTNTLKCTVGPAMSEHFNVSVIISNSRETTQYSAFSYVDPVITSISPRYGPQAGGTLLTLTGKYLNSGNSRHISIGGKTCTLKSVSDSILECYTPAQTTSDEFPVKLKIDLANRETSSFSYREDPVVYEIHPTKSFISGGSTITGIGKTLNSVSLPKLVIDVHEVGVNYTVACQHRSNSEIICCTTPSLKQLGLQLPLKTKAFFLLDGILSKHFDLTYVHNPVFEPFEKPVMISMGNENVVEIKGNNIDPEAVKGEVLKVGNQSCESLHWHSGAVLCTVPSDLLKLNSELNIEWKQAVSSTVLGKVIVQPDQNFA
PROTOCOL SUMMARY: ELISA, cross-reactivity, mouse cMET
ASSAY ENDPOINT: binding result

F6BP2D4 (antibody, V domains shown, Mouse monoclonal antibody) VH: QVQLQQSGAELAKPGASVKMSCKASGYTFTSYWMHWVKQRPGQGLEWIGYINPSTDYIEYNQKFKDKATLTAGKSSSTAYMQLSSLTSEDSAVYYCARSYGNFPLMDYWGQGTSVTVSS VL: QIVLTQSPAIMSASPGEKVTLTCSASSSVSSNYLYWYQQKPGSSPKLWIYSTSNLASGVPVRFSGSGSGTSYSLTISSMEAEDAASYFCHQWSSYPPTFGSGTKLEIKR has a reported binding result of no binding

F6AP8E2 (antibody, V domains shown, Mouse monoclonal antibody) VH: EVQLQQSGAELVRPGALVKLSCKASGFNINDYFMHWVKQRPEQGLEWIGWIDPENGNTIYDPKFQGKASITADTSSNTAYLQLSSLTSEDTAVYYCARGGNYLRESYYYAMDYWGQGTSVTVSS VL: DIVMTQSPKSMSMSVGERVTLSCKASENVGTYVSWYQQKPDQSPKLLIYGASNRYTGVPDRFTGSGSATDFTLTISSVQAEDLADYHCGQSYSYPLTFGAGTKLELKR has a reported binding result of no binding

F6B1P1E2 (antibody, V domains shown, Mouse monoclonal antibody) VH: QVQLQQSGAELAKPGASVKMSCKASGYTFTSYWMHWVKQRPGQGLEWIGYINPSTDYTEYNQKFKDKATLTADKSSTTAYMQLSSLTSEDSAVYYCVRSYGNYPLMDYWGQGTSVTVSS VL: QIVLTQSPAIMSASPGEKVTLTCSASSSVSSNYLYWYHQKPGSSPKLWIYSTSNLASGVPVRFSGSGSGTSYSLTISSMEAEDAASYFCHQWSSYPPTFGSGTKLEIKR has a reported binding result of no binding

F5P5B9 (antibody, V domains shown, Mouse monoclonal antibody) VH: QVQLKESGPGLVAPSQSLSITCTVSGFSLTNYGVNWVRQPPGKGLEWLGLIWGGGDTDYNSALKSRLSISKDNSKSQVFLKMETNSLQTDDTARYYCARDYYGFDYWGQGTTLTVSS VL: DVLMTQTPLSLPVSLGDQASISCRSSQTIVHGTGNTYLEWYLQKPGQSPKLLIYKVSNRFSGVPDRFSGSGSGTDFTLKISRVEAEDLGVYYCFQGSHVPYTFGGGTKLEIKR has a reported binding result of no binding
